TEST_TARGET: T1, human IL-2Rβ (human, UniProt P14784 27-240, limits assumed)
T1 construct: recombinant protein, coated or immobilised; also called hu IL-2R; IL-2R beta
T1 sequence: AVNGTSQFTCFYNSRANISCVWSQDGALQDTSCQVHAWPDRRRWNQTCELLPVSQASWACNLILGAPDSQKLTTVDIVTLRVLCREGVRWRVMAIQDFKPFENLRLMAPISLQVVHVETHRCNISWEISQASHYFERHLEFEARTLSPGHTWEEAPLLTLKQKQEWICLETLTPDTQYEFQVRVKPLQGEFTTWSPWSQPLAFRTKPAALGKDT
MEASUREMENT_DESCRIPTION: SPR, P.E. off-rate
MEASURE_NAME: koff (s⁻¹)
Express the result in s⁻¹ but write the number alone.

# koff lookup, item FJ1427_P035MP02G09 (VHH, soluble VHH in periplasmic extract; also called clone nr) VHH: QVQLVESGGGLVQAGGSLRLSCTVSGDVFVRYTMAWFRQAPGKEREFVALVTDSGRTTEYVDSVKGRFTVSRDNAKNTVYLQMNNLKPEDTAVYYCAANTDYFRIRSLDANTWGQGTQVTVSS
0.0011

Next: FJ1427 P035MP02F07 (VHH, soluble VHH in periplasmic extract; also called clone nr; 150) VHH: QVQLVESGGGLVQAGGSLRLSCAASGDVFVRYTMAWFRQAPGKEREFVASVTDSGRTTDYVDSVKGRFTVSRDNAKNTVYLQMNNLKPEDTARYYCAANTDYFQIRSLDANTWGQGTQVTVSS
0.00164
